Sourced from patent US20210363269A1

molecular target: T1, human SIRPγ isoform 1 (human, UniProt Q9P1W8 29-147); experiment: SPR Koff +/-
T1 construct: also called Gamma; Human SIRPg
T1 sequence (Q9P1W8 29-147 limits assumed): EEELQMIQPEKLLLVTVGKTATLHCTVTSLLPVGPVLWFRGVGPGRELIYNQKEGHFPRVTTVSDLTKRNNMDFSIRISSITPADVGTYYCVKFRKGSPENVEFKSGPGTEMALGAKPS
Endpoint Name: binding result

| Binder | Measured |
| --- | --- |
| antibody 117 (antibody, V domains shown, also called S117) VH: VQLVESGGGVVRPGESLRLSCAASGFSFSSYAMNWVRQAPGEGLEWVSRINSGGGGTDYAESVKGRFTISRDNSENTLYLQMNSLRAEDTAVYYCAKQYDWNGFFDYWGLGALVTVSS VL: ETVLTQSPATLSVSPGERATLSCRASQTVGSKLAWHQQKPGQAPRLLIYDATNRATGIPDRFSGSGSGTDFTLTISSLQTEDSAVYYCQQYYYWPPYRFGGGTKVEIK | binds |
| antibody 123 (antibody, V domains shown, also called S123) VH: VQLVESGGGLVQPGGSLRLSCTASGFTFRNYGMSWVRQAPGEGLEWVSASSGSGSTYYTDSVKGRFTISRDNSKNTLYLQMNSLRAEDTAIYYCAKVTWNNFFDYWGLGTLVTVSS VL: EIVLTQSPGTLSVSPGERVTLTCRASQGIAGKIAWYQQKPGQAPRLLIYDASSRATGIPGRFSGSGSGTEFTLTITSLQSEDFAVYYCQQHYDWSPLTFGGGTKVEIK | binds |
